# Test system: M14
# assay name: NCI tumour cell line growth inhibition, 48 h
Active and inactive are the calls of the source. No stated cut-off is given here; in the data, active = GI50 up to about 1.1 µM and inactive = higher.
Pick from active, inactive when you respond.

CCCC(=O)OC(OC(=O)CCC)c1ccc([N+](=O)[O-])o1 : inactive

Query: recorded result category for `O=C(NC(Nc1ccc(F)c(Cl)c1)(C(F)(F)F)C(F)(F)F)OCc1ccccc1` in this test
inactive

Query: recorded result category for `Cc1oc2c(c1C)S(=O)(=O)C(C#N)=CN2` in this test
inactive

Query: recorded result category for `Clc1ccccc1/C=C/c1cscn1` in this test
inactive

Query: recorded result category for `c1ccc(/C(=N/Nc2ccncn2)c2ccccn2)cc1` in this test
inactive

Query: recorded result category for `COc1cc2c(cc1OC)C(=O)/C(=C/c1ccc([N+](=O)[O-])cc1)CC2` in this test
inactive

Query: recorded result category for COC1(c2ccc(Cl)cc2)SC=C(C)n2c1noc2=O (stereo not drawn) in this test
inactive

Query: recorded result category for CC1=C(C(=O)OCCc2ccc([N+](=O)[O-])cc2)C(c2ccccc2[N+](=O)[O-])C(C(=O)OC(C)C)=C(C)N1 (stereo not drawn) in this test
inactive

Reference for the values: ChEMBL document CHEMBL1201862
